Hey, just so you know, these numbers are from paper PMC8622415.

Test: Stability of CGA acyl analogues in methanol solution (HPLC)
Format: physicochemical
Conditions: 25 °C, day 2
measuredQuantity: Amount remaining in methanol (HPLC area) (%)

Guide cases for Amount remaining in methanol (HPLC area), answers given:
| compound | measuredQuantity | recordedNumber |
| --- | --- | --- |
| CC(C)(C)C(=O)Oc1ccc(/C=C/C(=O)OC2CCCCC2)cc1OC(=O)C(C)(C)C [Compound 13c] | Amount remaining in methanol (HPLC area) | 99.1518 |
| O=C(/C=C/c1ccc(OC(=O)C2CCCCC2)c(OC(=O)C2CCCCC2)c1)OC1CCCCC1 [Compound 13d] | Amount remaining in methanol (HPLC area) | 95.8267 |
| CCCCCC(=O)Oc1ccc(/C=C/C(=O)OC2CCCCC2)cc1OC(=O)CCCCC [Compound 13b] | Amount remaining in methanol (HPLC area) | 89.9637 |

[P] CCCC(=O)Oc1ccc(/C=C/C(=O)OC2CCCCC2)cc1OC(=O)CCC [Compound 13a]
[Q] CC(=O)Oc1ccc(/C=C/C(=O)OC2CCCCC2)cc1OC(C)=O
Asked: Identify the entry with the smaller Amount remaining in methanol (HPLC area): P or Q . Record your answer as the label of the chosen record.
Given back: Q

###

Assay: Stability of CGA acyl analogues in methanol solution (HPLC)
Format: physicochemical
Conditions: 25 °C, day 0
measuredQuantity: Amount remaining in methanol (HPLC area) (%)

| compound | unitLabel | Amount remaining in methanol (HPLC area) |
| --- | --- | --- |
| CCCCCC(=O)Oc1ccc(/C=C/C(=O)OC2CCCCC2)cc1OC(=O)CCCCC [Compound 13b] | % | 99.8006 |
| O=C(/C=C/c1ccc(OC(=O)C2CCCCC2)c(OC(=O)C2CCCCC2)c1)OC1CCCCC1 [Compound 13d] | % | 98.9750 |
| CCCC(=O)Oc1ccc(/C=C/C(=O)OC2CCCCC2)cc1OC(=O)CCC [Compound 13a] | % | 99.3294 |
| CC(C)(C)C(=O)Oc1ccc(/C=C/C(=O)OC2CCCCC2)cc1OC(=O)C(C)(C)C [Compound 13c] | % | 99.5492 |
| CC(=O)Oc1ccc(/C=C/C(=O)OC2CCCCC2)cc1OC(C)=O | % | 99.5029 |

###

Assay: Stability of CGA acyl analogues in methanol solution (HPLC)
Format: physicochemical
Conditions: 25 °C, day 5
measuredQuantity: Amount remaining in methanol (HPLC area) (%)

| compound | Amount remaining in methanol (HPLC area) (%) |
| --- | --- |
| CCCCCC(=O)Oc1ccc(/C=C/C(=O)OC2CCCCC2)cc1OC(=O)CCCCC [Compound 13b] | 82.1086 |
| O=C(/C=C/c1ccc(OC(=O)C2CCCCC2)c(OC(=O)C2CCCCC2)c1)OC1CCCCC1 [Compound 13d] | 93.0573 |
| CCCC(=O)Oc1ccc(/C=C/C(=O)OC2CCCCC2)cc1OC(=O)CCC [Compound 13a] | 72.147 |

[a] CC(C)(C)C(=O)Oc1ccc(/C=C/C(=O)OC2CCCCC2)cc1OC(=O)C(C)(C)C [Compound 13c]
[b] CC(=O)Oc1ccc(/C=C/C(=O)OC2CCCCC2)cc1OC(C)=O [Compound 18]
Asked: Problem: Given the entries a and b , determine which has the lower reported Amount remaining in methanol (HPLC area). Identify your selection by its label.
Given back: b
